Source listed as patent US8906904B2.

Test: Assessment of solubility (McIlvaine buffers, 24 h shake, UPLC-UV)
Format: physicochemical
Conditions: pH 4.5, aqueous buffer, kinetic from dmso stock
observed property: solubility at 24 h

The cases that follow already have their solubility at 24 h on record.
| compound | solubility at 24 h |
| --- | --- |
| COc1c(C(=O)O)cnn1-c1cccc(-c2cccc(C)c2OCc2ccc3c(c2C)CCN(C2CCOCC2)C3)n1 [Compound 27] | 0.088 mg/mL |
| COc1c(C(=O)O)cnn1-c1cccc(-c2cccc(C)c2OCc2ccc3c(c2)CCN(CC2CC2(F)F)C3)n1 (centres unmarked) [Compound 72] | 0.046 mg/mL |
| Cc1cccc(-c2cccc(-n3ncc(C(=O)O)c3OC(C)C)n2)c1OCc1ccc2c(c1)CCN([C@H]1CCCOC1)C2 [Compound 115] | 0.071 mg/mL |

Need solubility at 24 h of COc1c(C(=O)O)cnn1-c1cccc(-c2cccc(C)c2OCc2ccc3c(c2)CCN(CC(F)(F)F)C3)n1 [Compound 11] , thanks.
< 0.0001 mg/mL

Form field: reported solubility at 24 h of Cc1cccc(-c2cccc(-n3ncc(C(=O)O)c3OC(C)C)n2)c1OCc1ccc2c(c1C)CCN(CC1(C)COC1)C2 [Compound 46]
0.082 mg/mL

# solubility at 24 h lookup, item COc1c(C(=O)O)cnn1-c1cccc(-c2cc(C)cc(C)c2OCc2ccc3c(c2C)CCN(C2CCOCC2)C3)n1 [Compound 180]
0.079 mg/mL

* * *

Molecular target: human soluble guanylate cyclase alpha 1 and beta 1 subunits (sGC) (Homo sapiens, UniProt Q02108+Q02153)
Sequence (Q02108 1-690): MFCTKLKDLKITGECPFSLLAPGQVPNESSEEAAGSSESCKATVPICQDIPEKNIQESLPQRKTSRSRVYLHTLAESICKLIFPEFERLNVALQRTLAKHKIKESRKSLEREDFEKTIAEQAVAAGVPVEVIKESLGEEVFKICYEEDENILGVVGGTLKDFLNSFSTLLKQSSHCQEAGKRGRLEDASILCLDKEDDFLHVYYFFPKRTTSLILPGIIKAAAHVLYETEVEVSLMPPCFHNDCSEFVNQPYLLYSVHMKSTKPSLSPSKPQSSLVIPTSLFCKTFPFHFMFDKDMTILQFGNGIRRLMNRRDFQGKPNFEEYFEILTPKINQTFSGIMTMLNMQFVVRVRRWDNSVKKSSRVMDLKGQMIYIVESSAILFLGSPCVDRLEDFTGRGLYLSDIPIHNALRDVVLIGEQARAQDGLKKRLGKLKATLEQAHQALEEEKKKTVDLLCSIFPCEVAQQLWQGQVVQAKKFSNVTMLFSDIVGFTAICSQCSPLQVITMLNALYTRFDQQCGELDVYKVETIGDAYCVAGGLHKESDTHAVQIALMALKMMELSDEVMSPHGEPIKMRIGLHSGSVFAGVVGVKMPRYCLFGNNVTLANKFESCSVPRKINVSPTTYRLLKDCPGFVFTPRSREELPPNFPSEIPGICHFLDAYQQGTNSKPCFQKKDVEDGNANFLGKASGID
Sequence (Q02153 1-619): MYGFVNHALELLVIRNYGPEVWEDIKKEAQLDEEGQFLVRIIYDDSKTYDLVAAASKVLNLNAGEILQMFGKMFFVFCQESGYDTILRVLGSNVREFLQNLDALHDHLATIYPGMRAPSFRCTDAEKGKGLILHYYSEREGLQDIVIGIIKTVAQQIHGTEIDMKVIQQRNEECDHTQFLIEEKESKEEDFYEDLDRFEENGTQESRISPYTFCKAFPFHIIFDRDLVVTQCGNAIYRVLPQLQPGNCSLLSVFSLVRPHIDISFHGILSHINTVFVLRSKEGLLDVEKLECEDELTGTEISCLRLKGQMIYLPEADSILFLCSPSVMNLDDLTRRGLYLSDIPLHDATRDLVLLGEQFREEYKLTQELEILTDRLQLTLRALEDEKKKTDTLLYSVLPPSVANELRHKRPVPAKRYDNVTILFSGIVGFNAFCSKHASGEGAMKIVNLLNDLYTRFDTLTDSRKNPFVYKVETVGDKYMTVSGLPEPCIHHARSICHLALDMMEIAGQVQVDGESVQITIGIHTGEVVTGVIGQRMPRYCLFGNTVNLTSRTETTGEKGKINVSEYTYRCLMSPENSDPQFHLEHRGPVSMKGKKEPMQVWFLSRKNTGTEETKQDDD
Test: sGC cellular activator assay (cGMP, HTRF)
Settings: CHO cells stably expressing human sGC alpha 1/beta 1, preincubated with 40 microM ODQ; cGMP readout; assay run with and without 50% human serum, Table 2 does not say which
observed property: EC50 (nM)
Your answer is read as nM, so omit the unit and give the number.

Solved cases (5 shown):
| substance smiles | EC50, nM |
| --- | --- |
| CCOc1c(C(=O)O)cnn1-c1cccc(-c2cccc(C)c2OCc2ccc3c(c2OC)CCN(C2CCOCC2)C3)n1 | 150 |
| CCOc1c(C(=O)O)cnn1-c1cccc(-c2cccc(C)c2OCc2ccc3c(c2C)CCN([C@H]2CCCOC2)C3)n1 | 17 |
| Cc1cccc(-c2cccc(-n3ncc(C(=O)O)c3OC(C)C)n2)c1OCc1ccc2c(c1C)CCN(C(C)C)C2 | 130 |
| CCOc1c(C(=O)O)cnn1-c1cccc(-c2cccc(C)c2OCc2ccc3c(c2C)CCN(C[C@@H]2CCCCO2)C3)n1 | 28 |
| COc1c(C(=O)O)cnn1-c1cccc(-c2cccc(C)c2OCc2ccc3c(c2)CN(C2CCOCC2)C3)n1 | 31 |

What value of EC50 has been reported for the following molecule? COc1c(C(=O)O)cnn1-c1cccc(-c2cccc(C)c2OCc2ccc3c(c2Cl)CCN(CC2(C)COC2)C3)n1
17

Query (molecule): COc1c(C(=O)O)cnn1-c1cccc(-c2cccc(C)c2OCc2ccc3c(c2C)CCN(C2COC2)CC3)n1 ; field requested: EC50
9.7

* * *

Experiment: Assessment of solubility (McIlvaine buffers, 24 h shake, UPLC-UV)
Assay type: physicochemical
Conditions: pH 6.8, aqueous buffer, kinetic from dmso stock
observed property: solubility at 24 h
// return the numeric value with its unit appended

Would you please look over these solved cases?
| molecule | result |
| --- | --- |
| CCOc1c(C(=O)O)cnn1-c1cccc(-c2cccc(C)c2OCc2ccc3c(c2C)CCN(CC2CCOC(C)(C)C2)C3)n1 (centres unmarked) | 73 µg/mL |
| COc1c(C(=O)O)cnn1-c1cccc(-c2cccc(C)c2OCc2ccc3c(c2C)CCN(C2COC2)CC3)n1 | 43 µg/mL |
| COc1c(C(=O)O)cnn1-c1cccc(-c2cccc(C)c2OCc2ccc3c(c2C)CCN(C[C@@H]2COCCO2)CC3)n1 | 73 µg/mL |
| CCOc1c(C(=O)O)cnn1-c1cccc(-c2cccc(C)c2OCc2ccc3c(c2C)CCN(C[C@@H]2CCCCO2)C3)n1 | 83 µg/mL |
| CCOc1c(C(=O)O)cnn1-c1cccc(-c2cccc(C)c2OCc2ccc3c(c2C)CCN(C2COC2)CC3)n1 | 85 µg/mL |
| COc1c(C(=O)O)cnn1-c1cccc(-c2cc(C)cc(C)c2OCc2ccc3c(c2)CCN(C2CCOCC2)C3)n1 | 88 µg/mL |

Can you look up the measured solubility at 24 h of CCOc1c(C(=O)O)cnn1-c1cccc(-c2cccc(C)c2OCc2ccc3c(c2C)CCN(C[C@H]2COC(C)(C)O2)C3)n1 for me?
93 µg/mL

* * *

Assay: Assessment of solubility (McIlvaine buffers, 24 h shake, UPLC-UV)
Type: physicochemical
Settings: pH 2.2, aqueous buffer, kinetic from dmso stock
Below, each entry is listed alongside its reported solubility at 24 h.
The answer is to be given in µg/mL; state only the numeric part.

Examples from the recorded data:
| compound | result number |
| --- | --- |
| Cc1cccc(-c2cccc(-n3ncc(C(=O)O)c3OC(C)C)n2)c1OCc1ccc2c(c1)CCN([C@H]1CCCOC1)C2 | 89 |
| COCC(C)N1CCc2c(ccc(COc3c(C)cccc3-c3cccc(-n4ncc(C(=O)O)c4OC(C)C)n3)c2C)C1 (stereo not drawn) | 100 |
| CCOc1c(C(=O)O)cnn1-c1cccc(-c2cccc(C)c2OCc2ccc3c(c2)CCN(CC2CC(=O)N(C)C2)C3)n1 (stereo not drawn) | 91 |
| COc1c(C(=O)O)cnn1-c1cccc(-c2cccc(C)c2OCc2ccc3c(c2C)CCN(C[C@H]2COCCO2)CC3)n1 | 81 |
| Cc1cccc(-c2cccc(-n3ncc(C(=O)O)c3OC(C)C)n2)c1OCc1ccc2c(c1)CCN(C1COC1)C2 | 93 |

Consider the record given below.
Reported solubility at 24 h for COc1c(C(=O)O)cnn1-c1cccc(-c2cccc(C)c2OCc2ccc3c(c2)CCN(CC(C)(C)C)C3)n1 : what is it?
110

* * *

Assay: Assessment of solubility (McIlvaine buffers, 24 h shake, UPLC-UV)
Format: physicochemical
Conditions: pH 2.2, aqueous buffer, kinetic from dmso stock
observed property: solubility at 24 h

Guide cases for solubility at 24 h, answers given:
| compound | solubility at 24 h |
| --- | --- |
| CCOc1c(C(=O)O)cnn1-c1cccc(-c2cccc(Cl)c2OCc2ccc3c(c2)CCN(CCOC)C3)n1 | 111 µg/mL |
| CCOc1c(C(=O)O)cnn1-c1cccc(-c2cccc(C)c2OCc2ccc3c(c2C)CCN([C@@H]2CCOC2)CC3)n1 | 90 µg/mL |
| Cc1cccc(-c2cccc(-n3ncc(C(=O)O)c3OC(C)C)n2)c1OCc1ccc2c(c1)CCN([C@@H]1CCCOC1)C2 | 94 µg/mL |
| COc1c(C(=O)O)cnn1-c1cccc(-c2cc(C)cc(C)c2OCc2ccc3c(c2C)CCN(C2CCOCC2)C3)n1 | 100 µg/mL |
| COc1c(C(=O)O)cnn1-c1cccc(-c2cccc(C)c2OCc2ccc3c(c2)CCN([C@H]2CC[C@@]4(CCCO4)CC2)C3)n1 | 96 µg/mL |
| COc1c(C(=O)O)cnn1-c1cccc(-c2cccc(C)c2OCc2cc(F)c3c(c2)CCN([C@@H]2CCOC2)C3)n1 | 100 µg/mL |
| COc1c(C(=O)O)cnn1-c1cccc(-c2cccc(C)c2OCc2ccc3c(c2C)CCN(C2COC2)C3)n1 | 95 µg/mL |
| COc1c(C(=O)O)cnn1-c1cccc(-c2cccc(C(F)(F)F)c2OCc2ccc3c(c2C)CCN(C2COC2)C3)n1 | 90 µg/mL |

Which solubility at 24 h reading was recorded for the compound CCOc1c(C(=O)O)cnn1-c1cccc(-c2cccc(C)c2OCc2ccc3c(c2)CCN(CC2CCOCC2)C3)n1 ?
91 µg/mL

Which value of solubility at 24 h has been reported for CC[C@H](C)Oc1c(C(=O)O)cnn1-c1cccc(-c2cccc(C)c2OCc2ccc3c(c2C)CCN(C2CCOCC2)C3)n1 in the records?
120 µg/mL

solubility at 24 h for COc1c(C(=O)O)cnn1-c1cccc(-c2cccc(C)c2OCc2cc3c(cc2C)CN(C2CCOCC2)C3)n1 ?
160 µg/mL

Requested read-out: solubility at 24 h. Entry: CCOc1c(C(=O)O)cnn1-c1cccc(-c2cccc(C)c2OCc2ccc3c(c2C)CCN([C@H]2CCOC2)CC3)n1
95 µg/mL
